Molecular target: T1, USP38, Q8NB14
T1 chain: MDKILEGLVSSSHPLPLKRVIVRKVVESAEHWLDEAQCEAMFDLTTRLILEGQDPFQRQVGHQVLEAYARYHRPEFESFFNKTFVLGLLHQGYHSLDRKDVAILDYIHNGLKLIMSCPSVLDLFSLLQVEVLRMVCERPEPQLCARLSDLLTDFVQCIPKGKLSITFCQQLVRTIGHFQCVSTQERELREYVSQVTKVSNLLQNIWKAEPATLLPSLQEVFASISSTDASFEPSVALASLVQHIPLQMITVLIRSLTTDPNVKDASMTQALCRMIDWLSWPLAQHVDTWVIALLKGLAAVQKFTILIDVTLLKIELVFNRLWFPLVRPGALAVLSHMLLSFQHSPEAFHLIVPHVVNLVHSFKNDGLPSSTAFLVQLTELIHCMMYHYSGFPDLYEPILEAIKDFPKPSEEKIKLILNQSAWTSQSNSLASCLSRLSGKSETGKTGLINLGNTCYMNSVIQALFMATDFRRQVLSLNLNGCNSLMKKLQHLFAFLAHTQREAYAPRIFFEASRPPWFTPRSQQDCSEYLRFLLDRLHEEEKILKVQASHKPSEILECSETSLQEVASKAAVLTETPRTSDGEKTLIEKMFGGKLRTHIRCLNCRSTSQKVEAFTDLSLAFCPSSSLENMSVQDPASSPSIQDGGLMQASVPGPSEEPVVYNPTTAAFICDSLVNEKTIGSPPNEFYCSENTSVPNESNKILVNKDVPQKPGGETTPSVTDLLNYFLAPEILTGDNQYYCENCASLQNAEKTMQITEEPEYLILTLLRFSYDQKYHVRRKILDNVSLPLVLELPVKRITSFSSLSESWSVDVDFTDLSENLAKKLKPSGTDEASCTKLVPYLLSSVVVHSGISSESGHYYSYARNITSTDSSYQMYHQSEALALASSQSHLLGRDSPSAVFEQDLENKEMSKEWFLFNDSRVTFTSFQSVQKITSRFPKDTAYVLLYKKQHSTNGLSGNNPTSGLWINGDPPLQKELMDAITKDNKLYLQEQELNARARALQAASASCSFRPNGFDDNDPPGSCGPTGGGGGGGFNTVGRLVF
Assay: median log2 fold change of GCK-ALFA target abundance (FLAG IP / Myc IP barcode read proportion) (log2 ratio); each designed protein is fused to an ALFA-tag nanobody in HEK293 cells to bring the named protein to FLAG-tagged glucokinase (GCK); Myc marks an untargeted standard; higher = target protein stabilised (more abundant)
Conditions: target protein: 3xFLAG-MCP-GCK-ALFA reporter; HEK293 landing pad (RPLP)
endpoint.name: median log2 fold change

# binder, endpoint.name, experimental.result
measured = [
    ("usp_38_diff_out_18_28_432 (protein) EEEEIKKLIEEAEKKMDELIDEYVKISTEGFLKINESDKGEELLEAINELADEVGKAAKAVNEMRKNRNDKEKVEEYLKKFEEAYKKAKEKIEEIKKLIE", "median log2 fold change", -0.257),
    ("usp_38_diff_out_17_125_215 (protein) SDEELKKEIEKKLKEAEELLKEAEKALEAGAPAEEVEKLLDAAADALGQLAVLLRELREKSKDKAQAAKFIKKATEEANKLIDRYTELAERNFLRVAEEQ", "median log2 fold change", -0.432),
    ("usp_38_diff_out_15_114_142 (protein) SAEEEAEEELRELEIKAGKDVAEELLEELKELRKRGRLTPAREERLLLGLRGLAILAIELKNKELAELVLEALEEFAKISDPETRAEAEKLAAELKKAMA", "median log2 fold change", 0.0926),
    ("usp_38_diff_out_18_14_348 (protein) SEELYEQELSNLKSLTEEVKKNTERLKKIVEKLKDDPESALSLLETREQALKGVIKYAEEVAKEAKKEGREELLKAAEELIKAAKEALAEAKKLREELLA", "median log2 fold change", -0.156),
    ("usp_38_diff_out_20_123_452 (protein) AAALRAEAEALLARAQQLLENAEQVLKFVKAGVLSEETVEEHIEMFEAHIEYLEAERARLAAEAPELAPLLAQIDEAIAKAKEVLEKIKEELEKRREEEE", "median log2 fold change", 0.438),
    ("usp_38_diff_out_3_65_532 (protein) KVEELLKKAEEKLEEAEKKIKELEKRVKEDPNITEEEVNEMLDEAADLIVEAGKYIREAKKLNPDEEQQERIKELEERLDEVIDLYVKAGEAGFLAVGER", "median log2 fold change", -0.0854),
    ("usp_38_diff_out_18_14_313 (protein) SEELREAEKSSLEILKKDVEEDTERKIKLLKKAKNDPERVKRIYERAMRDLEGVKKYAEEVLKRAEEEGDEETKKAAEELLKKVEEARERLEKAYKEVME", "median log2 fold change", 0.328),
    ("usp_38_diff_out_11_94_49 (protein) DEEIETNLFLMRYQFSQIVDLALTIDRETAAKVLRLANEAMEILKSGGPLEEVNKKLEEIKKVFNEAAAKSKENTEKLTAEANALLEKAKEYAEKAIKLR", "median log2 fold change", 0.33),
    ("usp_38_diff_out_15_91_163 (protein) MSSRTIATEGTLKRLKEDAELARELGLEETAKKAEEAAKLAEELLKLLKEREKAIKAGAPKEEIEKLRKEAKKKEKELNEKLSELVPDWAELELKRIEKE", "median log2 fold change", 0.082),
]
